- TESTED SYSTEM: HLA-A*2402 (human)
- MEASUREMENT PROTOCOL: iTopia affinity;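 note: peptide binding to HLA-A*2402 measured in iTopia kit format across eight serial peptide dilutions, ED50 derived from the resulting titration curve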
Hi! Could you tag entries with ED50 below 10 µM as met, and those at or above as not met? Much appreciated.

Field: below-cutoff. Rule: recorded ED50 strictly less than 10 µM. Subject: VFAEKITSL [cdr2 176-184 VFAEKITSL]
met

Field: below-cutoff. Rule: recorded ED50 strictly less than 10 µM. Subject: EYLTKQVEL [cdr2 64-72 EYLTKQVEL]
met

Field: below-cutoff. Rule: recorded ED50 strictly less than 10 µM. Subject: EQLQEIEYL [cdr2 58-66 EQLQEIEYL]
met

Field: below-cutoff. Rule: recorded ED50 strictly less than 10 µM. Subject: TVTMLQAQL [cdr2 201-209 TVTMLQAQL]
not met

Field: below-cutoff. Rule: recorded ED50 strictly less than 10 µM. Subject: SQSLLEEMF [cdr2 287-295 SQSLLEEMF]
not met

Field: below-cutoff. Rule: recorded ED50 strictly less than 10 µM. Subject: SFACLKELY [cdr2 157-165 SFACLKELY]
met

Field: below-cutoff. Rule: recorded ED50 strictly less than 10 µM. Subject: ELYDLRQHF [cdr2 163-171 ELYDLRQHF]
met

Field: below-cutoff. Rule: recorded ED50 strictly less than 10 µM. Subject: TPPEYKALF [cdr2 418-426 TPPEYKALF]
not met
